# Test system: ES6;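 further: growth inhibition of human ES6 cells, read out with a cell viability assay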
# assay notes: cells
# Type: functional, cell-based, Homo sapiens
# test context: Homo sapiens, ES6
# Description: SANGER: Inhibition of human ES6 cell growth in a cell viability assay.
pIC50: −log10 of the molar value.
assay readout: pIC50

Solved entries:
chemical smiles: C#Cc1cccc(Nc2ncnc3cc(OCCOC)c(OCCOC)cc23)c1
result: < 5.70
--
chemical smiles: Cc1ccc(-c2c(C(=O)CCl)n(CCCO)c3ncnc(N)c23)cc1
result: < 5.40
--
chemical smiles: C=C(c1ccc(C(=O)O)cc1)c1cc2c(cc1C)C(C)(C)CCC2(C)C
result: < 5.10

Output measured pIC50 for this item: Nc1ccn([C@@H]2O[C@H](CO)[C@@H](O)C2(F)F)c(=O)n1
> 8.40

Output measured pIC50 for this item: Cc1cc([N+](=O)[O-])ccc1NS(=O)(=O)c1cc(Cl)ccc1Cl
5.52
